The values you see were collected from the supplement of paper PMC10567573.

B1: FAM189A2 (parent)
chain: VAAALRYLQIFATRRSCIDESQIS

Variants of: B1
Assay: protein stability index of a GFP-peptide fusion (GPS, HEK-293T) (PSI 1-6); higher = more stable;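 further: lentivirally expressed fusions sorted by FACS into six bins by GFP to DsRed ratio, PSI derived from sequencing read proportions per bin multiplied by bin number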
Settings: c terminus: a fixed tail appended
For each entry below, report its protein stability index value.
// response body must contain only the number

Prompt: Need protein stability index, item A4Q
Response: 2.73

Prompt: Need protein stability index, item A4D
Response: 2.19

Prompt: Need protein stability index, item S21L
Response: 2.45

Prompt: Need protein stability index, item R14H
Response: 3.33

Prompt: Need protein stability index, item V1A
Response: 3.21

Prompt: Need protein stability index, item R6E
Response: 2.75

Prompt: Need protein stability index, item L5R
Response: 2.94

Prompt: Need protein stability index, item D19L
Response: 3.03

Prompt: Need protein stability index, item D19Y
Response: 4.69

Prompt: Need protein stability index, item S16Q
Response: 1.79

Prompt: Need protein stability index, item S16T
Response: 2.29

Prompt: Need protein stability index, item I23C
Response: 1.73

Prompt: Need protein stability index, item I23L
Response: 1.61

Prompt: Need protein stability index, item R14C
Response: 3.16

Prompt: Need protein stability index, item I18N
Response: 2.27

Prompt: Need protein stability index, item Q22N
Response: 1.77

Prompt: Need protein stability index, item I10F
Response: 1.73

Prompt: Need protein stability index, item D19I
Response: 2.5

Prompt: Need protein stability index, item S24T
Response: 2.85

Prompt: Need protein stability index, item I18T
Response: 1.75

Prompt: Need protein stability index, item Q9C
Response: 3.59

Prompt: Need protein stability index, item R15Y
Response: 2.55
